# TARGET_OR_TEST_SYSTEM: Beta-lactamase (Enterobacter cloacae)
# Sequence (P05364 whole entry): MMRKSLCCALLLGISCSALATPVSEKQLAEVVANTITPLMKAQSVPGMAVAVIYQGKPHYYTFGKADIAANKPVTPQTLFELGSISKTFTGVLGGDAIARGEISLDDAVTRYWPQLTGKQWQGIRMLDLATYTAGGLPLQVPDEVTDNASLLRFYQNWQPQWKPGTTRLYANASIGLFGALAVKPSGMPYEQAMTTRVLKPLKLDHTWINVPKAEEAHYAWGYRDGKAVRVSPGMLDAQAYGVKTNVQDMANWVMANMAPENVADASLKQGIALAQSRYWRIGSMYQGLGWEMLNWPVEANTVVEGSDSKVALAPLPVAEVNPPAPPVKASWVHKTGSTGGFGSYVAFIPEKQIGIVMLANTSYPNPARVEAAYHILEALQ
# TEST_DESCRIPTION: The concentration of compound to inhibit Beta-lactamase was measured on Enterobacter cloacae P99
# Format: functional
pIC50: −log10 of the molar value.
QUANTITY: pIC50

Here are 4 molecules together with their reported answers.
{"STRUCTURE": "CC(=O)/C=C1/C(=O)N2C(C(=O)O)=C(COC(C)=O)CS[C@H]12", "pIC50": "< 4.70"}
{"STRUCTURE": "CC(=O)OCC1=C(C(=O)O)N2C(=O)/C(=C/C(=O)OC(C)(C)C)[C@H]2SC1", "pIC50": 5.60}
{"STRUCTURE": "CC(=O)OCC1=C(C(=O)O)N2C(=O)C(=C(Br)Br)[C@H]2SC1", "pIC50": "< 4.70"}
{"STRUCTURE": "CC(=O)OCC1=C(C(=O)O)N2C(=O)/C(=C/c3ccccc3)[C@H]2SC1", "pIC50": "< 4.70"}

Qu. For "CC(=O)OCC1=C(C(=O)O)N2C(=O)/C(=C/c3ccccn3)[C@H]2SC1" , what is its reported pIC50?
Ans. < 4.70
